# TARGET UNDER TEST: Glycogen phosphorylase, muscle form (Oryctolagus cuniculus) (UniProt P00489)
# Sequence (P00489 whole entry): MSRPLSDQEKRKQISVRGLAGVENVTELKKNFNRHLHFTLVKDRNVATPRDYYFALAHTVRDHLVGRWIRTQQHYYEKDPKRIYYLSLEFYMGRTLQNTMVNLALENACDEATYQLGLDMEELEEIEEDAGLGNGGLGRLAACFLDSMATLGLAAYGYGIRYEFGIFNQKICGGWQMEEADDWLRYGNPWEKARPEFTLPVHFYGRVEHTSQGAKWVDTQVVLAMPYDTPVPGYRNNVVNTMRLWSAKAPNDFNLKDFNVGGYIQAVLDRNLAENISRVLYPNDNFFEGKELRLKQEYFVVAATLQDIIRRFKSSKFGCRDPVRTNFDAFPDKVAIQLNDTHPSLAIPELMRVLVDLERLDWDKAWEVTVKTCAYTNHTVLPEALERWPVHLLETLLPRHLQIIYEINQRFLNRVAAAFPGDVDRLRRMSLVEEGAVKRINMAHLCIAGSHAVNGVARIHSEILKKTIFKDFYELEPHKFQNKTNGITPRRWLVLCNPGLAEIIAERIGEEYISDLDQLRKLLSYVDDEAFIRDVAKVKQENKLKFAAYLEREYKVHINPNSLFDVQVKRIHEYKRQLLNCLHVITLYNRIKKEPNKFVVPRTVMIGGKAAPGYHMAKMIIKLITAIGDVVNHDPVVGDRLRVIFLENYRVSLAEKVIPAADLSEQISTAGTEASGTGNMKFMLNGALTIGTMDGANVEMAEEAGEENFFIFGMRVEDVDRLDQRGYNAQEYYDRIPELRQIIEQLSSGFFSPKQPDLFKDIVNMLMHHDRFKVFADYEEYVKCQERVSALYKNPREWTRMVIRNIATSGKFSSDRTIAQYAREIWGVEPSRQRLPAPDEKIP
# METHOD NOTES: Inhibition of rabbit muscle glycogen phosphorylase […] assessed as release of phosphate from glucose-1- phosphate at 10 uM after 20 mins
MEASUREMENT NAME: inhibition (%)

{"COMPOUND": "O=C1Oc2ccccc2N/C1=C/C(=O)c1ccc(Cl)cc1", "TARGET UNDER TEST": "Glycogen phosphorylase, muscle form (Oryctolagus cuniculus) (UniProt P00489)", "MEASUREMENT NAME": "inhibition", "UNIT TAG": "%", "RESULT NUMBER": 26}

a. Cc1cc(S(=O)(=O)Nc2nnc3c4ccccc4ccn23)c(S)cc1Cl
b. CSc1ccc(NC(=O)C2CCCCC2C(=O)O)cc1 (stereo not drawn)
Inquiry: I would appreciate it if you could say which entry, a or b , has the lower inhibition value. Record your answer as the label of the chosen record.
Reply text: b

###

# TARGET UNDER TEST: Glycogen phosphorylase, muscle form (Oryctolagus cuniculus)
# METHOD NOTES: Inhibition of rabbit muscle glycogen phosphorylase […] assessed as release of phosphate from glucose-1- phosphate at 10 uM after 20 mins
MEASUREMENT NAME: inhibition (%)

{"MOLECULE": "Cc1cc(S(=O)(=O)Nc2nnc3c(C(F)(F)F)cc(Cl)cn23)c(S)cc1Cl", "RESULT NUMBER": 53}
{"MOLECULE": "Cc1cccc(NC(=O)CC(=O)Nc2cccc(C)c2)c1", "RESULT NUMBER": 4}
{"MOLECULE": "C/C=C/c1cc(OC)c2c(c1)[C@H](C)[C@@H](c1ccc(O)c(OC)c1)O2", "RESULT NUMBER": 8}

I. Cc1cc(S(=O)(=O)Nc2nc3ccccc3[nH]2)c(S)cc1Cl
II. CN(C)c1ccc(/C=C/C(=O)c2cc(Cl)ccc2O)cc1
Inquiry: Which has the higher inhibition, I or II ? Record your answer as the label of the chosen record.
Reply text: I

1. O=C(CC(=O)NCc1ccccc1)NCc1ccccc1
2. CCOc1ccc(NC(=O)c2cc3ccccc3cc2O)cc1
Inquiry: Which has the higher inhibition, 1 or 2 ? Record your answer as the label of the chosen record.
Reply text: 2
(2: 22%, 1: 1%)

A. Cc1ccc(S(=O)(=O)CC2CCc3ccccc3C2=O)cc1 (configuration not stated)
B. COc1ccccc1NC(=O)C(=O)Nc1ccccn1
Inquiry: Which has the higher inhibition, A or B ? Record your answer as the label of the chosen record.
Reply text: A

###

# TARGET UNDER TEST: Glycogen phosphorylase, muscle form (Oryctolagus cuniculus)
# METHOD NOTES: Inhibition of rabbit muscle glycogen phosphorylase […] assessed as release of phosphate from glucose-1- phosphate at 10 uM after 20 mins
MEASUREMENT NAME: inhibition (%)

{"CHEMICAL SMILES": "CSc1ccc(NC(=O)Nc2ccccc2C(N)=O)cc1", "inhibition (%)": 17}
{"CHEMICAL SMILES": "CCOC(=O)C(=O)CC(=O)c1ccc(OC)cc1", "inhibition (%)": 34}

P. COc1ccc2cc(-c3ccc(OC)c(OC)c3)c(=O)oc2c1
Q. CSc1cccc(NC(=O)Nc2ccccc2C(N)=O)c1
R. Cc1ccccc1NC(=O)CC(=O)Nc1ccccc1C
S. COC(=O)c1ccccc1NC(=O)Nc1cccc(OC)c1
Inquiry: Put the items in order so that reported inhibition rises from first to last. Returns: the labels arranged in the requested order.
Reply text: R, S, P, Q
(R: 2%, S: 12%, P: 24%, Q: 36%)

Source of measurements: ChEMBL document CHEMBL1811792
